TESTED_TARGET: Xanthine dehydrogenase/oxidase (Homo sapiens)
Sequence (P47989 whole entry): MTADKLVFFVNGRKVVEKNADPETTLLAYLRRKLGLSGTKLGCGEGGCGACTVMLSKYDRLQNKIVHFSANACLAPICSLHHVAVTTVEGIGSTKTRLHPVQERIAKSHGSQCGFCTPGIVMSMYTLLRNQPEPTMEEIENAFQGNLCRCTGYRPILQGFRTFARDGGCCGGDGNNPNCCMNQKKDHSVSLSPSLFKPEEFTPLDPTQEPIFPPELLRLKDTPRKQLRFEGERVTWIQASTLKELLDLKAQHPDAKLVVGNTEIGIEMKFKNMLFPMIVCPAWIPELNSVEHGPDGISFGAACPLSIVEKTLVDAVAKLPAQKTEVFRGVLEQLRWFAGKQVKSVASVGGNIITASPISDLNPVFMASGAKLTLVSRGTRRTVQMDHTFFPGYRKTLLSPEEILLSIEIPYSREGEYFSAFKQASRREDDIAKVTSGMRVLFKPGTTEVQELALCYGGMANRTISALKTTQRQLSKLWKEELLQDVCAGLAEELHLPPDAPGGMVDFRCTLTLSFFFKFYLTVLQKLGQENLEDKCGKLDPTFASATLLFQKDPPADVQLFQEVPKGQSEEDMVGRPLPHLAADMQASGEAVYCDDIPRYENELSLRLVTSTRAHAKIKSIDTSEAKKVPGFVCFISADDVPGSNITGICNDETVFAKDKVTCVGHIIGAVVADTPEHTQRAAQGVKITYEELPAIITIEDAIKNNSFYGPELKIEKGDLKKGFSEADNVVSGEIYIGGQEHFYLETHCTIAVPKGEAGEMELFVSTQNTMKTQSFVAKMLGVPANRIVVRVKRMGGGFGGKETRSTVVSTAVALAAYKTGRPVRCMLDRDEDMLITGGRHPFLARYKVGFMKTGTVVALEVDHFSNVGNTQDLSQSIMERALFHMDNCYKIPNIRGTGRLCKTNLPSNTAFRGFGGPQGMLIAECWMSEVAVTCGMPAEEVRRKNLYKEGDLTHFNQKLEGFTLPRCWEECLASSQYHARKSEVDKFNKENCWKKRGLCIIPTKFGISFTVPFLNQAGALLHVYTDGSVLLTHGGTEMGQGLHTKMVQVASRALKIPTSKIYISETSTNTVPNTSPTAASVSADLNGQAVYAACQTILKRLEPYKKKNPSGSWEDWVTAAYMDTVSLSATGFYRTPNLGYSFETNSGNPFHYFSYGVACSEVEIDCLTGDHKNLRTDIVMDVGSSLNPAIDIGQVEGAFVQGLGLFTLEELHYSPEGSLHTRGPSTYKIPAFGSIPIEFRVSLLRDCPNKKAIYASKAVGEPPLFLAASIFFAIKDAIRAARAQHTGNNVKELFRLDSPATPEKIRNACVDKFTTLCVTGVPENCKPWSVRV
TEST_DETAILS: Inhibition of xanthine oxidase by noncompetitive Lineweaver-Burke plot
EXPERIMENTAL_CONTEXT: read-out: Kinact
MEASURED_METRIC: Ki (µM)
Respond with the bare value in µM.

Task: Requested read-out: Ki. Entry: O=C(/C=C/c1ccc(O)cc1)O[C@@H]1[C@@H](Oc2ccc(-c3cc(=O)c4c(O)cc(O)cc4o3)cc2)O[C@@H](CO)[C@H](O)[C@H]1O
Output: 93.7

Source: ChEMBL document CHEMBL1142609
